- assayedTarget: HLA-A*02:01 (Homo sapiens, UniProt P04439, D140Y/D185E/D98H/E176V/E277Q/G131W/G231S/I119V/I121R/I166T/I218V/L300P/L318F/N151K/N90K/P208A/P217A/Q86G/Q94H/R138H/R169H/T345S)
- methodSummary: MHC binding assay (UV-ligand exchange, β2m ELISA, peptide exchange yield)
- conditionLabel: MHC class I binding score; binding to HLA-A*02:01 ranged by peptide exchange yield (UV-ligand exchange, β2m ELISA)
quantityMeasured: Peptide exchange

Recorded results for 8 substances are shown here.
[[record]]
substance = "388 (SLTIDGIRYV; listed as Homo sapiens) [compound 388]"
reading = "“+++” (≧50 = +++)"

[[record]]
substance = "188 (GLFPVTPEAV; listed as Homo sapiens) [compound 188]"
reading = "“+++” (≧50 = +++)"

[[record]]
substance = "394 (LLAVIGGLVYL; listed as Homo sapiens) [compound 394]"
reading = "“+++” (≧50 = +++)"

[[record]]
substance = "174 (ALAQYLITA; listed as Homo sapiens) [compound 174]"
reading = "“+++” (≧50 = +++)"

[[record]]
substance = "169 (NLPEYLPFV; listed as Homo sapiens) [compound 169]"
reading = "“+++” (≧50 = +++)"

[[record]]
substance = "42 (VLLQKIVSA; listed as Homo sapiens) [compound 42]"
reading = "“+++” (≧50 = +++)"

[[record]]
substance = "611 (YLLDDGTLVV; listed as Homo sapiens) [compound 611]"
reading = "“++++” (≧75% = ++++)"

[[record]]
substance = "495 (FIFSEKPVFV; listed as Homo sapiens) [compound 495]"
reading = "“+++” (≧50 = +++)"


Tell me its Peptide exchange given 560 (ALWDIETGQQTTT; listed as Homo sapiens) [compound 560] as the entry.
“+++” (≧50 = +++)
